target: UniProt:P01031; experiment: Competitive fluorescence polarization assay with probe R3076; assay type: binding; set-up: purchased Complement Technology, Tyler, Tex; conditions: competition with probe R3076 25 nM, C5 50 nM, 60 min at 25° C.; experiment 1; read-out: Ki nM, Exp 1
Sequence (P01031 19-1676): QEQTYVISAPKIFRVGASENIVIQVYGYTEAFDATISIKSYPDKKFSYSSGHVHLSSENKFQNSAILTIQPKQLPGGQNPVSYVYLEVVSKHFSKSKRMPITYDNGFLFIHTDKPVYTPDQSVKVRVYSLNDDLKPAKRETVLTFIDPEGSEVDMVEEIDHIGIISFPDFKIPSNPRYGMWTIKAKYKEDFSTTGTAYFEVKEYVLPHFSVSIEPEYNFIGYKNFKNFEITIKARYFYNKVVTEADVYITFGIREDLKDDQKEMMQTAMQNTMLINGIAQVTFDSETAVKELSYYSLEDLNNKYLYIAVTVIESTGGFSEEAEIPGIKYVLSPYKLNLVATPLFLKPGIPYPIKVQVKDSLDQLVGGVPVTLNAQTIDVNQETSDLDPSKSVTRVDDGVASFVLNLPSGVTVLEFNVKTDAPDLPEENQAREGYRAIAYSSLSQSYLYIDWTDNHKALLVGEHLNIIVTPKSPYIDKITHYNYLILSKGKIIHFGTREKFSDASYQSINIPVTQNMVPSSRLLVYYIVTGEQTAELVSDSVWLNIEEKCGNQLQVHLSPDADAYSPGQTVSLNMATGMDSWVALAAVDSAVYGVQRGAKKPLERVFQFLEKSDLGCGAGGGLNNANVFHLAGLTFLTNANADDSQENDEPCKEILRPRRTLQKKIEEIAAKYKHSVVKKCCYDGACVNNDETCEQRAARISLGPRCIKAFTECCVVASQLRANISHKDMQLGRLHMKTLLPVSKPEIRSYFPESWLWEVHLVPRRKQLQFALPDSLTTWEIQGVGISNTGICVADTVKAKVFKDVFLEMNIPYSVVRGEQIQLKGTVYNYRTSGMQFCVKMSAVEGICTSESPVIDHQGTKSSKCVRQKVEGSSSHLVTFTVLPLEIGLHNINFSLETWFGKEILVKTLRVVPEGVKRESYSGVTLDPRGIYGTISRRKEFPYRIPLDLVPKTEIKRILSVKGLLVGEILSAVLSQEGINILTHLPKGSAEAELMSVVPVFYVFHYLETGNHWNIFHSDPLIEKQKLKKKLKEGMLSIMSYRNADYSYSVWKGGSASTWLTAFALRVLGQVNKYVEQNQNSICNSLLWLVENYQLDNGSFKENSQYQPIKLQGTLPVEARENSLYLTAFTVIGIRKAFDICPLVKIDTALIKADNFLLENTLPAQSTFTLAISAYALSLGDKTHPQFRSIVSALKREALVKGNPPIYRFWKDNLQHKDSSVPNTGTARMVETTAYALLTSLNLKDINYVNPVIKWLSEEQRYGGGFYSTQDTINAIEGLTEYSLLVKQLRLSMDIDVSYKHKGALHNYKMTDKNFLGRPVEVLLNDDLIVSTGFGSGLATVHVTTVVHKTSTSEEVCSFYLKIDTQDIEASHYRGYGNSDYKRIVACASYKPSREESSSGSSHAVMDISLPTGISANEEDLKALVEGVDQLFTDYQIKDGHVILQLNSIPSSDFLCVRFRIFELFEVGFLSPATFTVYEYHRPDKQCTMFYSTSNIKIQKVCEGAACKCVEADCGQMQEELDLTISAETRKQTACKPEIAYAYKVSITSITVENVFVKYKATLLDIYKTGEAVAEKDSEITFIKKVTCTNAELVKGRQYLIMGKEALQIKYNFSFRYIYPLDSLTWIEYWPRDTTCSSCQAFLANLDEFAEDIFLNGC
Starred links: 1 amine or outer side, 2 acyl side, 3 side chain; linkers in the order of their positions; H or OH if unused. Positions of bridges follow the written chain, without caps; N, C: chain ends. Non-standard residues stand in square brackets, D forms with d. Residues, ends and D or L forms follow the SMILES beside them. Trp(7-aza) = N[C@@H](Cc1c[nH]c2ncccc12)C(=O)O; mXylylene = c1cc(C[*:1])cc(C[*:2])c1; Phg = N[C@H](C(=O)O)c1ccccc1; NMeS = CN[C@@H](CO)C(=O)O; Nva = CCC[C@H](N)C(=O)O
READOUT LABEL: Ki (nM)
Report the value in nM with no unit label.

Ask: Reported Ki, compound CCC[C@H](NC(=O)[C@@H]1CCCN1C(=O)[C@H](CCC)NC(=O)[C@@H]1CSCc2cccc(c2)CSC[C@H](NC(C)=O)C(=O)N[C@@H](c2ccccc2)C(=O)N[C@@H]([C@@H](C)O)C(=O)N[C@@H](Cc2c[nH]c3ncccc23)C(=O)N[C@@H](CCC(=O)O)C(=O)N[C@@H](Cc2ccc(O)cc2)C(=O)N(C)[C@@H](CO)C(=O)N[C@@H](Cc2c[nH]cn2)C(=O)N1)C(N)=O [Compound R3014] (Ac-C[Phg]T[Trp(7-aza)]EY[NMeS]HC[Nva]P[Nva]-NH2; linker 1-9 via mXylylene) : ____
Reply: 1400
